- assay_overview: Cytotoxicity against human HepG2 cells expressing CD81 assessed as cell viability after 72 hrs by CellTiter-glo assay
- Type: cell-based
attribute_measured: CC50 at 72 h (µM)

> print(dat)
                                   compound  attribute.measured  result.comparator  numeric.result
1  CCN(CC)CCCC(C)Nc1ccnc2cc(Cl)ccc12 (centres undefined) [CHLOROQUINE]        CC50 at 72 h                  =             1.6
2  C[C@@H]1CC[C@H]2[C@@H](C)C(=O)O[C@@H]3O[C@@]4(C)CC[C@@H]1[C@]32OO4 [ARTEMISININ]        CC50 at 72 h                  >              10
3  O=C1C(O)=C([C@H]2CC[C@H](c3ccc(Cl)cc3)CC2)C(=O)c2ccccc21 [ATOVAQUONE]        CC50 at 72 h                  =             9.5
4  COc1cc(NC(C)CCCN)c2ncccc2c1 (centres undefined) [PRIMAQUINE]        CC50 at 72 h                  =             6.1

====

- Tested on: Plasmodium falciparum
- assay_overview: Antiplasmodial activity against multi-drug resistant Plasmodium falciparum K1 infected in human erythrocytes assessed as parasite growth inhibition after 72 hrs by SYBR Green I dye-based fluorescence assay
- Assay type: functional, organism-based
- condition_context: read-out: IC50
pIC50: −log10 of the molar value.
attribute_measured: pIC50

> print(dat)
                           molecular.string  numeric.result
1  CC(C)(C)Nc1nc2cc(-c3ccc(Cl)cc3)sc2c(=O)[nH]1.O=C(O)/C=C/C(=O)O            6.10
2  Cc1ccc(-c2cc3nc(NC(C)C)[nH]c(=O)c3s2)cc1            6.10
3  CC(C)(C)Nc1nc2cc(-c3ccc(Cl)cc3)sc2c(=O)[nH]1            6.10
4  Cc1ccc(-c2cc3nc(NC(C)C)[nH]c(=O)c3s2)cc1.O=C(O)/C=C/C(=O)O            6.10
5  Cc1ccc(-c2cc3nc(NC(C)(C)C)[nH]c(=O)c3s2)cc1.Cl            7.35
6  Cc1ccc(-c2cc3nc(NC(C)(C)C)[nH]c(=O)c3s2)cc1            6.70

====

- assay_overview: Selectivity index, ratio of CC50 for human HepG2 cells expressing CD81 to IC50 for liver stage of Plasmodium yoelii 17X NL sporozoites infected in human HepG2 cells expressing CD81
- Type: functional
Entries annotated with measured Ratio CC50/IC50
attribute_measured: Ratio CC50/IC50

> print(dat)
                                   compound  attribute.measured  result
1  Cc1ccc(-c2cc3nc(NC(C)(C)C)[nH]c(=O)c3s2)cc1.Cl     Ratio CC50/IC50   >4086
2  CC(C)(C)Nc1nc2cc(-c3ccc(Cl)cc3)sc2c(=O)[nH]1.O=C(O)/C=C/C(=O)O     Ratio CC50/IC50   >2000
3  Cc1ccc(-c2cc3nc(NC(C)C)[nH]c(=O)c3s2)cc1.O=C(O)/C=C/C(=O)O     Ratio CC50/IC50    >925
4  COc1cc(NC(C)CCCN)c2ncccc2c1 (centres undefined)     Ratio CC50/IC50     5.3
